Biological target: Full-length (FL)-PRMT5-MEP50 enzyme complex (Homo sapiens)
Construct: Full-length (FL)-PRMT5-MEP50 enzyme complex (recombinant proteins from baculovirus-transfected Sf21 cells: FL-PRMT5; MW=73837 kDa and FL-MEP50; MW=38614); made in house; host or cells: baculovirus-transfected Sf21 cells
Test: PRMT5-MEP50 Enzyme Methylation Assay (Version A)
Assay type: biochemical
Conditions: single EC50 = 4 parameter single site sigmoidal fit; EC50 1 = first value of 7 parameter biphasic fit; read-out: Enzyme Methylation Assay Version A (EC50 or EC50 1)
pEC50: −log10 of the molar value.
measuredEndpoint: pEC50

Example results:
Query: Missing value: pEC50, Full-length (FL)-PRMT5-MEP50 enzyme complex (Homo sapiens), entry COC(C)c1cc(C(F)F)cn2cc(C(=O)N3CC[C@]4(Cc5ccccc5CN4)[C@H](O)C3)nc12 (single isomer, unassigned) [Example 81] . Fill in?
Reply: 8.42

Query: Now this one: `COc1nc2nc(C(=O)N3CC[C@]4(Cc5ccccc5CN4)[C@H](O)C3)cn2cc1C1CC1`
Reply: 6.26

Query: Continue with O=C(c1cn2cc(Br)cc(C(O)C(F)(F)F)c2n1)N1CC[C@]2(Cc3ccccc3CN2)[C@H](O)C1 (single isomer, unassigned) [Example 31]
Reply: 9.67

Query: Repeat with O=C(c1cn2cc(Br)ccc2n1)N1CCC2(Cc3ccccc3CN2)C(O)C1 (stereo not drawn)
Reply: 8.70

Query: Subsequent entry: CC1CC(C(F)(F)F)Cn2cc(C(=O)N3CC[C@]4(Cc5ccccc5CN4)[C@H](O)C3)nc21 (single isomer, unassigned) [Example 166]
Reply: 8.44

(I) COCc1cc(Br)cn2cc(C(=O)N3CC[C@]4(Cc5ccccc5CN4)[C@H](O)C3)nc12
(II) Cc1ccc(C(=O)N2CC[C@]3(Cc4ccccc4CN3)[C@H](O)C2)c(O)n1
(III) CCOc1nc(C)ccc1C(=O)N1CC[C@]2(Cc3ccccc3CN2)[C@H](O)C1
(IV) O=C(c1c[nH]c2ncncc12)N1CC[C@]2(Cc3ccccc3CN2)[C@H](O)C1
(V) COC(C)c1cc(Br)c2nc(C(=O)N3CC[C@]4(Cc5ccccc5CN4)[C@H](O)C3)cn2c1 (single isomer, unassigned) [Example 60]
Query: Please produce an ascending ranking of these compounds based on pEC50. Return value: ordered labels per request.
Reply: IV, II, III, I, V
(IV: 6.46, II: 6.69, III: 8.17, I: 9.09, V: 9.34)

(a) O=C1CCCN1CCOc1nc(Br)cn2cc(C(=O)N3CC[C@]4(Cc5ccccc5CN4)[C@H](O)C3)nc12
(b) COCC1CC(C)Cn2cc(C(=O)N3CC[C@]4(Cc5ccccc5CN4)[C@H](O)C3)nc21 (single isomer, unassigned) [Example 158]
Query: Between a and b , which one has the lower reported pEC50 value? Indicate your choice by writing its label.
Reply: b

(P) Cc1ccc2c(c1)C[C@]1(CCN(C(=O)c3cn4cc(C5CC5)cnc4n3)C[C@H]1O)NC2 (single isomer, unassigned)
(Q) Cc1ccc2nc(C(=O)N3CC[C@]4(Cc5ccccc5CN4)[C@H](O)C3)cn2c1
Query: Of P and Q , whose reported pEC50 is numerically smaller? // respond with label for picked entry
Reply: P
(P: 8.07, Q: 9.09)

----------
Test system: symmetric dimethylation of arginine (SDMA) of PRMT5 substrates in MCF-7 cells
Assay: PRMT5 Cell Target Engagement (TE) Assay
Type: cell-based
Settings: 3 days treatment, SDMA high content imaging
measuredEndpoint: EC50 (nM)

Query: Please look up its EC50: COC(C)c1cc(Br)c2nc(C(=O)N3CC[C@]4(Cc5ccccc5CN4)[C@H](O)C3)cn2c1 (single isomer, unassigned) [Example 60]
Reply: 7.49

Query: Similarly, COC(C)c1cc(C(F)F)cn2cc(C(=O)N3CC[C@]4(Cc5ccccc5CN4)[C@H](O)C3)nc12 (single isomer, unassigned) [Example 81] ?
Reply: 25

(A) O=C1Nc2cc(C(=O)N3CC[C@]4(Cc5ccccc5CN4)[C@H](O)C3)ccc2OC1C1CC1 (single isomer, unassigned) [Example 107]
(B) CC(=O)N1CCC(Nc2cc(C(=O)N3CCC4(Cc5ccccc5CN4)C(O)C3)ncn2)CC1 (single isomer, unassigned) [Example 93]
(C) COCC1CC(C)Cn2cc(C(=O)N3CC[C@]4(Cc5ccccc5CN4)[C@H](O)C3)nc21 (single isomer, unassigned) [Example 158]
Query: # ascending order, key=EC50 Would you mind listing the labels in the order asked for?
Reply: A, B, C

----------
Tested on: symmetric dimethylation of arginine (SDMA) of PRMT5 substrates in MCF-7 cells
Assay: PRMT5 Cell Target Engagement (TE) Assay
Assay type: cell-based
Conditions: 3 days treatment, SDMA high content imaging
pEC50: −log10 of the molar value.
measuredEndpoint: pEC50

Solved entries (count: 5):
Query: Recorded pEC50 of O=C(c1ccc(C(=O)N2C3CCC2COC3)cc1)N1CCC2(Cc3ccccc3CN2)C(O)C1 (single isomer, unassigned) [Example 150] , please.
Reply: 6.61

Query: Again, but for O=C(c1cn2cc(Br)nc(OC3CCOC3)c2n1)N1CC[C@]2(Cc3ccccc3CN2)[C@H](O)C1 (single isomer, unassigned)
Reply: 8.11

Query: Entry to check: N#CCCC1CC(C(F)(F)F)Cn2cc(C(=O)N3CC[C@]4(Cc5ccccc5CN4)[C@H](O)C3)nc21 (single isomer, unassigned) [Example 165]
Reply: 6.08

Query: COCC1CC(C)Cn2cc(C(=O)N3CC[C@]4(Cc5ccccc5CN4)[C@H](O)C3)nc21 (single isomer, unassigned) [Example 159] , same question.
Reply: 6.28

Query: Field entry: CCC1Oc2ccc(C(=O)N3CC[C@]4(Cc5ccccc5CN4)[C@H](O)C3)cc2NC1=O (single isomer, unassigned) [Example 105]
Reply: 8.36

(I) COC(C)c1cc(C(F)F)cn2cc(C(=O)N3CC[C@]4(Cc5ccccc5CN4)[C@H](O)C3)nc12 (single isomer, unassigned) [Example 80]
(II) O=C(c1cn2cc(C3CC3(F)F)cnc2n1)N1CC[C@]2(Cc3ccccc3CN2)[C@H](O)C1 (single isomer, unassigned)
Query: Given the listed items, does I or II have the lesser reported pEC50? Lab note: record the label of whichever item you select.
Reply: II
(II: 7.62, I: 8.08)

----------
Target: Full-length (FL)-PRMT5-MEP50 enzyme complex (Homo sapiens)
Construct: Full-length (FL)-PRMT5-MEP50 enzyme complex (recombinant proteins from baculovirus-transfected Sf21 cells: FL-PRMT5; MW=73837 kDa and FL-MEP50; MW=38614); made in house; host or cells: baculovirus-transfected Sf21 cells
Assay: PRMT5-MEP50 Enzyme Methylation Assay (Version B)
Format: biochemical
Details: single EC50 = 4 parameter single site sigmoidal fit; EC50 1 = first value of 7 parameter biphasic fit; read-out: Enzyme Methylation Assay Version B (EC50 or EC50 1)
measuredEndpoint: EC50 (nM)

Query: Report EC50 for CC(=O)N1CCC(Nc2cc(C(=O)N3CCC4(Cc5ccccc5CN4)C(O)C3)ncn2)CC1 (single isomer, unassigned) [Example 90] tested on Full-length (FL)-PRMT5-MEP50 enzyme complex (Homo sapiens).
Reply: 206

(I) Cn1ncnc1-c1ccc(C(=O)N2CCC3(CC2)Cc2ccccc2CN3)cc1 [Example 117]
(II) CC(=O)N1CCC(Nc2cc(C(=O)N3CCC4(Cc5ccccc5CN4)C(O)C3)ncn2)CC1 (single isomer, unassigned) [Example 91]
Query: Return label of the item with the larger EC50. Candidates: I , II . Mark your selection by writing its label.
Reply: I
(I: 690 nM, II: 1.65 nM)

(P) CC(=O)N1CCC(Nc2cc(C(=O)N3CC[C@]4(Cc5ccccc5CN4)[C@H](O)C3)c(Cl)cn2)CC1 [Example 4]
(Q) CC(=O)N1CCC(Nc2cc(C(=O)N3CC[C@]4(Cc5ccccc5CN4)[C@H](O)C3)c(F)cn2)CC1 [Example 5]
(R) CC(=O)N1CCC(Nc2cc(C(=O)N3CCC4(CC3)Cc3ccccc3CN4)ccn2)CC1 [Example 174]
(S) CC(=O)N1CCC(Nc2cc(C(=O)N3CCC4(Cc5ccccc5CN4)C(O)C3)ncn2)CC1 (single isomer, unassigned) [Example 92]
(T) CC(=O)N1CCC(Nc2cc(C(=O)N3CC[C@]4(Cc5ccccc5CN4)[C@H](O)C3)ccn2)C(F)(F)C1 (single isomer, unassigned) [Example 96]
Query: hey, can you rank those compounds up there by EC50? biggest number first please Output the labels ranked as instructed.
Reply: S, T, R, Q, P

----------
Molecular target: Full-length (FL)-PRMT5-MEP50 enzyme complex (Homo sapiens, UniProt O14744)
Construct: Full-length (FL)-PRMT5-MEP50 enzyme complex (recombinant proteins from baculovirus-transfected Sf21 cells: FL-PRMT5; MW=73837 kDa and FL-MEP50; MW=38614); made in house; host or cells: baculovirus-transfected Sf21 cells
Sequence (O14744 whole entry): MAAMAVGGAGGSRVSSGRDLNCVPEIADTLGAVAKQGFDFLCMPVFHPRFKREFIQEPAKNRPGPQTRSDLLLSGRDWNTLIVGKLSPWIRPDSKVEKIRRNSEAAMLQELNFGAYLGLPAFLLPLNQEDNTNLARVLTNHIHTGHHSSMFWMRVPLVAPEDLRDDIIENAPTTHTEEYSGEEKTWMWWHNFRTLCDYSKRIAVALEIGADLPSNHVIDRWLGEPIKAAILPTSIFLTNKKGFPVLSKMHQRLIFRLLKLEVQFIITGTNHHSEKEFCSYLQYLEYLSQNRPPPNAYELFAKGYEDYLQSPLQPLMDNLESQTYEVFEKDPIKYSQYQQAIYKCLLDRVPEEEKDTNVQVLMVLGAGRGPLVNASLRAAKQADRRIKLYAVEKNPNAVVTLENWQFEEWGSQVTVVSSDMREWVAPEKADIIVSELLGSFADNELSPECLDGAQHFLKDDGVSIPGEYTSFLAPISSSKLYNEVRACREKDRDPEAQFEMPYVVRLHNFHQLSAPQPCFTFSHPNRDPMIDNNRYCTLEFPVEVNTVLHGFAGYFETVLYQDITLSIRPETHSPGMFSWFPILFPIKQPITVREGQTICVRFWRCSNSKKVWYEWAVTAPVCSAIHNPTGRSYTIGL
Sequence (Q9BQA1 whole entry partner): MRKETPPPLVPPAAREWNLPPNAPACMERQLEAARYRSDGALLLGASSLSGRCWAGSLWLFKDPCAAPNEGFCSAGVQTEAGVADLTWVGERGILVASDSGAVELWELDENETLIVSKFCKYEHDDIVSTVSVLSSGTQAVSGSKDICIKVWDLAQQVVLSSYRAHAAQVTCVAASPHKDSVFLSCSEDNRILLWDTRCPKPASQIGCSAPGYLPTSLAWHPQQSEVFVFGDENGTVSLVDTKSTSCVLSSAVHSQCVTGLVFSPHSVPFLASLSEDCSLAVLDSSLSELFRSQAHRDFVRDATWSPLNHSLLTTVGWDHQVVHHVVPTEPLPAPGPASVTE
Assay: PRMT5-MEP50 Enzyme Methylation Assay (Version A)
Type: biochemical
Settings: second value of 7 parameter biphasic fit; read-out: Enzyme Methylation Assay Version A (EC50 2)
measuredEndpoint: EC50 (nM)

Consider the following illustrative entries.
Query: What value of EC50 has been recorded for this entry: O=C(c1ccc2c(O)c(CC(F)(F)F)cnc2c1)N1CC[C@]2(Cc3ccccc3CN2)[C@H](O)C1 [Example 153]
Reply: 2950

Query: Thanks! And N#CC1(c2cnc3nc(C(=O)N4CC[C@]5(Cc6ccccc6CN5)[C@H](O)C4)cn3c2)CC12CC2 (single isomer, unassigned) [Example 83] ?
Reply: 3160

Query: Another compound to look at: O=C(c1cnc2ncc(Cl)cn12)N1CC[C@]2(Cc3ccccc3CN2)[C@H](O)C1 [Example 56]
Reply: 10000

(P) COC(C)c1cc(C2CC2)cn2cc(C(=O)N3CC[C@]4(Cc5ccccc5CN4)[C@H](O)C3)nc12 (stereo partly shown) [Example 132]
(Q) COc1nc2nc(C(=O)N3CC[C@]4(Cc5ccccc5CN4)[C@H](O)C3)cn2cc1C [Example 128]
(R) COC(C)c1cc(Br)c2nc(C(=O)N3CC[C@]4(Cc5ccccc5CN4)[C@H](O)C3)cn2c1 (single isomer, unassigned) [Example 61]
Query: Please produce an ascending ranking of these compounds based on EC50. # answer = labels listed in requested order
Reply: P, R, Q
(P: 123 nM, R: 422 nM, Q: 2690 nM)

Where do these numbers come from? They come from patent US12441730B2.
